- TARGET OR SYSTEM: Kinesin-like protein KIF11 (Homo sapiens, UniProt P52732)
- Sequence (P52732 whole entry): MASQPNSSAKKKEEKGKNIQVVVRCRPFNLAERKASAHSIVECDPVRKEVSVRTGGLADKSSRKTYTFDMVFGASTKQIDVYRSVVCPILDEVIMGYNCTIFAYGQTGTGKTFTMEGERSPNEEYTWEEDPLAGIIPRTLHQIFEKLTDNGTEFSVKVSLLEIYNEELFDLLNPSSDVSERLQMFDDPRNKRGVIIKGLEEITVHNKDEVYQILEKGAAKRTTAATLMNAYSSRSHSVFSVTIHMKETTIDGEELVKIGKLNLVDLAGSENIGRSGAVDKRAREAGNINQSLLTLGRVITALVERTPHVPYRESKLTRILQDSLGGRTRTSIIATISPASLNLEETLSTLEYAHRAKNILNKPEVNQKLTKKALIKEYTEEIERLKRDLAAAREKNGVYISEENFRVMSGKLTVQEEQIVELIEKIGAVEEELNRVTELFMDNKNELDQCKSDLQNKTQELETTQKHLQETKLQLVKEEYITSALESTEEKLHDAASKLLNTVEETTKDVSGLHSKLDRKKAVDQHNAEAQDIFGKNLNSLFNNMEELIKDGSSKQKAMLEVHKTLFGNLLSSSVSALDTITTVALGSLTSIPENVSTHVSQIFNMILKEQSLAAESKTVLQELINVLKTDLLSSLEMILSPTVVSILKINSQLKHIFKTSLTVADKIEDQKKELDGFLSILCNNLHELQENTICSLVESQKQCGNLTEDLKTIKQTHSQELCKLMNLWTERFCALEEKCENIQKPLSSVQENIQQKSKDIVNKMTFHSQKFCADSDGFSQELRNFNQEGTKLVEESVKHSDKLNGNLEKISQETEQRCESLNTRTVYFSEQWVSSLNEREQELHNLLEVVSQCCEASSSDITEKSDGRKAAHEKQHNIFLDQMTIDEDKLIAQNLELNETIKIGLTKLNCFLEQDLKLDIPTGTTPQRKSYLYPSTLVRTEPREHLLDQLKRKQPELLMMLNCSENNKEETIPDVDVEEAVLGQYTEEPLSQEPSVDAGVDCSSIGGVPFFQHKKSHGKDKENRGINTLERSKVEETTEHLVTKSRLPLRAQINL
- ASSAY EXPLANATION: Inhibition of microtubule-stimulated kinesin spindle protein motor domain (unknown origin) ATPase activity preincubated for 20 mins followed by ATP addition measured after 15 mins by kinase-glo based luciferase reporter gene assay
REPORTED METRIC: IC50 (µM)
Return type: number; implicit unit µM.

Problem: Form field: IC50 recorded for FC(F)(F)c1ccc(-c2ccc(-c3cn4ccc[n+]4[n-]3)cc2)cc1 with Kinesin-like protein KIF11 (Homo sapiens, UniProt P52732) (enter value)
Solution: 6.8
